- Target of assay: FLNA pentapeptide of SEQ ID NO: 1 (Bn-VAKGL) (Homo sapiens, UniProt P21333)
- Experiment description: FITC-NLX-based FLNA screening assay (inhibition of FITC-naloxone binding to Bn-VAKGL on streptavidin plates)
- Run conditions: FLNA-binding compound 0.01 μM; 10 nM FITC-NLX; read-out: Percent Binding Inhibition
Field: inhibition at 0.01 µM. Provide a value for each of the molecules that follow.
One number for each entry, in %.

Worked cases, inhibition at 0.01 µM given:
O=[N+]([O-])c1ccc(S(=O)(=O)N2CCC3(CC2)NCCO3)cc1
38.4
COc1ccc(C(=O)N2CCC3(CC2)OCCN3C(=O)c2ccc(OC)cc2)cc1
28.9
COc1ccc(S(=O)(=O)N2CCC3(CC2)OCCN3S(=O)(=O)c2ccc(OC)cc2)cc1
38.5

// each listed molecule needs a value for inhibition at 0.01 µM
1. CC(=O)c1ccc(S(=O)(=O)N2CCOC23CCN(CC2CC2)CC3)cc1 [Compound C0095M]
2. CC(=O)c1ccc(S(=O)(=O)N2CCC3(CC2)NC(=O)CO3)cc1 [Compound C0087M]
3. OC(COc1ccc(Br)c(F)c1)CN1CCc2ccccc2C1 (stereo not drawn)
4. CC1CN(CC(O)COc2ccccc2Br)CC(C)O1 (stereo not drawn)
5. CC1CCC(C(C)C)C(OCC(CN2CC(C)OC(C)C2)NCc2ccccc2)C1 (stereo not drawn)
6. COc1ccc(S(=O)(=O)N2CCSC23CCNCC3)cc1

40.1
51.6
29.1
46.4
46.4
39.1

====

- Target of assay: FLNA pentapeptide of SEQ ID NO: 1 (Bn-VAKGL) (Homo sapiens)
- Experiment description: FITC-NLX-based FLNA screening assay (inhibition of FITC-naloxone binding to Bn-VAKGL on streptavidin plates)
- Run conditions: read-out: Percent Binding Inhibition, FLNA-binding compound 0.01 μM; 10 nM FITC-NLX
Field: inhibition at 0.01 µM. Provide a value for each of the compounds that follow.
One number for each entry, in %.

Worked cases, inhibition at 0.01 µM given:
CC1CCC(C(C)C)C(OCC(O)CN2CCSCC2)C1 (stereo not shown)
21.3
COc1ccc(S(=O)(=O)N2CCC3(CC2)NCCC(=O)N3)cc1 [Compound C0142M]
35.1
COc1ccccc1S(=O)(=O)N1CCC2(CC1)OCCN2S(=O)(=O)c1ccccc1OC
38.3

// each listed compound needs a value for inhibition at 0.01 µM
1. CN1CCC2(CC1)NCC(=O)N2Cc1ccccc1 [Compound C0105M]
2. O=C(c1ccc([N+](=O)[O-])cc1)N1CCC2(CC1)OCCN2C(=O)c1ccc([N+](=O)[O-])cc1
3. O=S(=O)(c1ccc(Br)cc1C(F)(F)F)N1CCC2(CC1)OCCN2S(=O)(=O)c1ccc(Br)cc1C(F)(F)F
4. COc1cc(CC(=O)CC2c3c(cc4c(c3OC)OCO4)CC[N+]2(C)C)cc(OC)c1OC (stereo not shown)
5. CC1CCC(C(C)C)C(OCC(O)CN2CCC2)C1 (stereo not shown)
6. O=S(=O)(c1cccc(OC(F)(F)F)c1)N1CCC2(CC1)OCCN2S(=O)(=O)c1cccc(OC(F)(F)F)c1
7. OC(COc1ccc(Br)c(F)c1)CN1CCCCC1 (stereo not shown)

1. 55.7
2. 41.5
3. 53.7
4. 35.5
5. 36.3
6. 35.2
7. 28.9

// each listed compound needs a value for inhibition at 0.01 µM
1. CC(=O)c1ccc(S(=O)(=O)N2CCC3(CC2)OCCN3S(=O)(=O)c2ccc(C(C)=O)cc2)cc1
2. CC1CCC(C(C)C)C(OCC(O)CN2CCCc3ccccc32)C1 (stereo not shown)
3. COc1c2c(cc3c1C(CC(=O)/C=C/c1ccc(Cl)cc1)[N+](C)(C)CC3)OCO2 (stereo not shown)
4. CC(=O)Nc1ccc(S(=O)(=O)N2CCC3(CC2)OCCN3S(=O)(=O)c2ccc(NC(C)=O)cc2)cc1
5. CC(=O)c1ccc(S(=O)(=O)N2CC(=O)NC23CCNCC3)cc1 [Compound C0086M]
6. O=S(=O)(c1ccc(Br)cc1F)N1CCC2(CC1)OCCN2S(=O)(=O)c1ccc(Br)cc1F

[37.6, 51.9, 34.3, 39.6, 37.9, 46.6]
